- Tested on: Aeromonas hydrophila
- assay_method_text: Antibacterial activity against Aeromonas hydrophila QDIO-1 assessed as inhibition of bacterial growth by serial dilution method
- Format: functional
Below, each entry is listed with its recorded MIC.

Sample answers from the record:
compound: CC1C=C[C@H]2C[C@@H](CO)C[C@@H](C)[C@@H]2[C@H]1/C=C/C=C/C(=O)O (stereo not given in full)
measurement_target: Aeromonas hydrophila
MIC: 64 µg/mL
//
compound: Cc1ccc2cc(CO)cc(C)c2c1/C=C/C=C/C(=O)O
measurement_target: Aeromonas hydrophila
MIC: > 64 µg/mL
//
compound: Cc1ccc2c(c1/C=C/C=C/C(=O)O)[C@H](C)C[C@@](C)(O)C2=O
measurement_target: Aeromonas hydrophila
MIC: > 64 µg/mL
//
compound: O=C(N[C@H](CO)[C@H](O)c1ccc([N+](=O)[O-])cc1)C(Cl)Cl [CHLORAMPHENICOL]
measurement_target: Aeromonas hydrophila
MIC: 1 µg/mL

Exam item: May I ask what MIC has been recorded for "C[C@H]1C=C[C@H]2C[C@@H](CO)C[C@](C)(O)[C@@H]2[C@H]1/C=C/C=C/C(=O)O" ?
Marked response: > 64 µg/mL

Exam item: Then this compound: "C[C@@H]1C[C@@H]2C=C[C@H](C)[C@H](/C=C/C=C/C(=O)O)[C@H]2[C@@](C)(O)C1"
Marked response: > 64 µg/mL

Exam item: Then this compound: "Cc1ccc2c(c1/C=C/C=C/C(=O)O)[C@H](C)C[C@H](CO)C2"
Marked response: > 64 µg/mL

Exam item: Then this compound: "Cc1cc(CO)cc2ccc(CO)c(/C=C\C=C\C(=O)O)c12"
Marked response: > 64 µg/mL

###

- Test system: Escherichia coli
- assay_method_text: Antibacterial activity against Escherichia coli EMBLC-1 assessed as inhibition of bacterial growth by serial dilution method
- Format: functional
endpoint_label: MIC (µg/mL)

compound: CC1C=C[C@H]2C[C@@H](CO)C[C@@H](C)[C@@H]2[C@H]1/C=C/C=C/C(=O)O (stereo not given in full)
measurement_target: Escherichia coli
output_unit: µg/mL
endpoint_value: 64

compound: Cc1ccc2c(c1/C=C/C=C/C(=O)O)[C@H](C)C[C@H](C)[C@@H]2O
measurement_target: Escherichia coli
output_unit: µg/mL
endpoint_value: 64

compound: O=C(N[C@H](CO)[C@H](O)c1ccc([N+](=O)[O-])cc1)C(Cl)Cl [CHLORAMPHENICOL]
measurement_target: Escherichia coli
output_unit: µg/mL
endpoint_value: 1

(a) Cc1ccc2cc(CO)cc(C)c2c1/C=C/C=C/C(=O)O
(b) CO[C@@]1(C)C=C[C@H]2C[C@@H](CO)C[C@@H](C)[C@@H]2[C@H]1/C=C/C=C/C(=O)O
Exam item: Please tell me which of the two, a or b , has the higher reported MIC value. To answer, give the label that identifies your chosen option.
Marked response: a
(a: 64 µg/mL, b: 8 µg/mL)

###

Below, each entry is listed with its recorded MIC.
- Test system: Aeromonas hydrophila
- assay_method_text: Antibacterial activity against Aeromonas hydrophila QDIO-1 assessed as inhibition of bacterial growth by serial dilution method
- Type: functional

smiles_string: C[C@@H]1C[C@H](CO)C[C@@H]2C=C[C@@](C)(O)[C@](O)(/C=C/C=C/C(=O)O)[C@@H]12
endpoint_value: > 64 µg/mL

Exam item: May I ask what MIC has been recorded for "Cc1ccc2c(c1/C=C/C=C/C(=O)O)[C@H](C)C[C@H](C)[C@@H]2O" ?
Marked response: 32 µg/mL

Exam item: Then this molecule: "Cc1ccc2c(c1/C=C/C=C/C(=O)O)[C@H](C)C[C@@](C)(O)C2"
Marked response: > 64 µg/mL

Exam item: Then this molecule: "Cc1cc(C)c2c(/C=C/C=C/C(=O)O)c(CO)ccc2c1"
Marked response: 64 µg/mL

Exam item: Then this molecule: "CO[C@]1(C)C=C[C@H]2C[C@@H](CO)C[C@@H](C)[C@@H]2[C@H]1/C=C/C=C/C(=O)O"
Marked response: > 64 µg/mL

Exam item: Then this molecule: "Cc1cc(CO)cc2ccc(CO)c(/C=C/C=C/C(=O)O)c12"
Marked response: > 64 µg/mL

Exam item: Then this molecule: "CO[C@@]1(C)C=C[C@H]2C[C@@H](CO)C[C@@H](C)[C@@H]2[C@H]1/C=C/C=C/C(=O)O"
Marked response: > 64 µg/mL
